target: EHMT1 (Homo sapiens)
Sequence (Q9H9B1 whole entry, species assumed): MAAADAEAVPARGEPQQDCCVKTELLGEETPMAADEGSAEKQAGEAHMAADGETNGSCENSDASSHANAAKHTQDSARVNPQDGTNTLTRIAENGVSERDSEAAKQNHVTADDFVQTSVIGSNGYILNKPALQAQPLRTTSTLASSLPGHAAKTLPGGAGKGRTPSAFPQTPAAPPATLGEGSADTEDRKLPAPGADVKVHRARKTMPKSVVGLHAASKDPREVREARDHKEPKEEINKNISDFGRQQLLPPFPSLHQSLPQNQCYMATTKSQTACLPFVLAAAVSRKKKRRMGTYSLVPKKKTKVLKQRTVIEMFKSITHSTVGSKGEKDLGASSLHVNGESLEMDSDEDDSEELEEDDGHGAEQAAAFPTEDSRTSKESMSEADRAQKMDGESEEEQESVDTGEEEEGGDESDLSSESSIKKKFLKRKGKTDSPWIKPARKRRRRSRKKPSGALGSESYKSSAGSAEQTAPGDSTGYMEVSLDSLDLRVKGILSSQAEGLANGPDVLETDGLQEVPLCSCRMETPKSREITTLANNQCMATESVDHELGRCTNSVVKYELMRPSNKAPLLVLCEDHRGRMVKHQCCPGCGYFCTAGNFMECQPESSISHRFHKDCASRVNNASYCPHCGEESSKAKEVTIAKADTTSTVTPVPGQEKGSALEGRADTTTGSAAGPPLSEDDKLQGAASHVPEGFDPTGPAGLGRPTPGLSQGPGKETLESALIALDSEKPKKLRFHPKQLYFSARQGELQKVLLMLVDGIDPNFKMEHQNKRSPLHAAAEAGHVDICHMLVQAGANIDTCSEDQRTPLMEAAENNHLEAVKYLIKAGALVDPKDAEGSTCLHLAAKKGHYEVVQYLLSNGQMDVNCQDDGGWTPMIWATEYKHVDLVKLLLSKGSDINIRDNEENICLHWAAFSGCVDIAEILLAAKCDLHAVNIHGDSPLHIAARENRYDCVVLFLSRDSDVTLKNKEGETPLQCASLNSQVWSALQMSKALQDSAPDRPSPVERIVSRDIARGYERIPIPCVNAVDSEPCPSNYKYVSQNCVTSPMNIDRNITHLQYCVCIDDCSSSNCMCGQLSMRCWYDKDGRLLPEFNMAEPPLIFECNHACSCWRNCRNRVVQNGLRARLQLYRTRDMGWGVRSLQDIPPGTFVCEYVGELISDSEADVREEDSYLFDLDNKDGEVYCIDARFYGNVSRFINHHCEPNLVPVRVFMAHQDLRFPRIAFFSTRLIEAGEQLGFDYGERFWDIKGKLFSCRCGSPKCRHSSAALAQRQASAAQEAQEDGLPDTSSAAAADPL
protocol_description: EHMT1 enzyme assay on peptide substrate (EHMT1 PEP)
Type: biochemical
experimental_context: Table VI; read-out: EHMT1 PEP IC50
Overview of reported IC50 across a group of molecules:

Solved entries (count: 8):
1. COc1cc(NC2CCNCC2)ncc1OCC1CCNC1 (stereo not drawn): < 100 nM
2. CNc1cc(C)nc(Nc2ccc(C(=O)NCc3ccccc3)c(OC)c2)n1: > 10000 nM
3. COc1ncc(Nc2nc(C)cc(NCC3COC3)n2)cc1OC[C@@H](O)CN1CCCC1: > 10000 nM
4. CNc1cc(C)nc(Nc2cc(OCCCN3CCCC3)c3oncc3c2)n1: > 10000 nM
5. CNc1cc(C)nc(Nc2ccc(OC)c(CNCCN(C)C)c2)n1: < 100 nM
6. COc1cc2c(C#CCN3CCOCC3)cc(C)nc2cc1OCCCN1CCCC1: > 10000 nM
7. COc1cc2c(C3CCN(C4CCOCC4)CC3)cc(C)nc2cc1OCCCN1CCCC1: < 100 nM
8. COc1cnc(NC(=O)/C=C/CN(C)C)cc1OCCCN1CCCC1: > 10000 nM

Note to self: IC50 recorded for `COc1cnc(Nc2cc(NCC3COC3)cnn2)cc1OCCCN1CCCC1` was 100 to 1000 nM

Note to self: IC50 recorded for CNc1cc(C)nc(Nc2ccc(OC)c(C#CC3CCCN3C)c2)n1 (stereo not drawn) was < 100 nM

Note to self: IC50 recorded for CCN1CCC(O)(COc2cc(Nc3nccc(NC)n3)ccc2OC)C1 (stereo not drawn) [Compound 1006] was < 100 nM

Note to self: IC50 recorded for `CNc1ccnc(Nc2ccc(OC)c(OC[C@@H](CN3CCCC3)OC)c2)n1` was 1000 to 10000 nM

Value source: patent US20210198277A1
